- Target entity: CYP3A4 (Homo sapiens)
- Construct: 0.1 mg/mL human liver microsomes; from tissue; host or cells: human liver microsomes
- Method notes: IC50 against CYP3A4 by inhibition of testosterone metabolism in human liver microsomes
- Assay type: biochemical
- Condition details: 0.1 mg/mL human liver microsomes, 25 μM testosterone, 1 mM NADPH, 6-β-OH-testosterone production, eight minutes; read-out: IC50, μM (HLM, testosterone)
Measured parameter: IC50

In [3]: df
Out[3]:
                                   molecule  measured_parameter  experimental_value
0  CC(=O)N1CCN(C(=O)Cn2nc(-c3ccncc3)cc2Cc2ccc(F)cc2)CC1 [Example 134]                IC50            0.051 µM
1  CC(C)OC(=O)N(C)C1CCN(C(=O)Cn2nc(-c3ccncc3)cc2Cc2ccc(F)cc2)CC1 [Example 112]                IC50            0.009 µM
2  O=C(Cn1nc(-c2ccncc2)cc1Cc1ccc(F)cc1)N1CCC(N2CCOCC2)CC1 [Example 137]                IC50            0.031 µM
3  OCCCn1nc(-c2ccncc2)cc1Cc1ccc(F)cc1 [Example 32]                IC50            0.015 µM
4  CC(=O)N[C@@H]1CCN(C(=O)Cn2nc(-c3ccncc3)cc2Cc2ccc(F)cc2)C1 [Example 100]                IC50           0.0845 µM
5  CCC(=O)NC1CCN(C(=O)Cn2nc(-c3ccncc3)cc2Cc2ccc(F)cc2)CC1 [Example 101]                IC50            0.035 µM
6  CS(=O)(=O)N1CC(n2nc(-c3ccncc3)cc2Cc2ccc(F)cc2)C1 [Example 23]                IC50            0.218 µM
7  COC(=O)N(C)C1CCN(C(=O)Cn2nc(-c3ccncc3)cc2Cc2ccc(F)cc2)CC1 [Example 15]                IC50            0.013 µM

###

In this section, each of the compounds is paired with its reported IC50.
- Target entity: CYP3A4 (Homo sapiens, UniProt P08684)
- Construct: 0.1 mg/mL human liver microsomes; from tissue; host or cells: human liver microsomes
- Sequence (P08684 whole entry): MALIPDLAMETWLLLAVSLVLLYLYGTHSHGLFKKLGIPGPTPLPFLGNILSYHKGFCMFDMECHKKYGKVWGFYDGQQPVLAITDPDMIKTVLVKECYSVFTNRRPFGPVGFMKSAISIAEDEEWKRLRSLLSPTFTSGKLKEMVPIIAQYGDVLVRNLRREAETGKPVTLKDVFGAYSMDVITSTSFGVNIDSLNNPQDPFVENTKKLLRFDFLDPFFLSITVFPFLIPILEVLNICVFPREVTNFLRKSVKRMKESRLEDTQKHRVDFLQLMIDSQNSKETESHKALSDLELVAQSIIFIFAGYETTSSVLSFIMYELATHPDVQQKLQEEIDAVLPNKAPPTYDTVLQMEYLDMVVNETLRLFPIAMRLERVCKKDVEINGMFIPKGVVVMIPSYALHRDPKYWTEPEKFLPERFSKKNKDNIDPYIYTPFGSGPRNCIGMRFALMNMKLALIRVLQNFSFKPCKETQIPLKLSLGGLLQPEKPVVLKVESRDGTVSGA
- Method notes: IC50 against CYP3A4 by inhibition of midazolam metabolism in human liver microsomes
- Type: biochemical
- Condition details: 0.1 mg/mL human liver microsomes, 2 μM midazolam, 1 mM NADPH, 1-hydroxymidazolam production, eight minutes; read-out: IC50, μM (HLM, midazolam)
Measured parameter: IC50 (µM)

>>> df
                           molecular_string  comparison_symbol  experimental_value
0  CCC(=O)N(C)C1CCN(C(=O)Cn2nc(-c3ccncc3)cc2Cc2ccc(F)cc2)CC1                  =               0.013
1  O=C(Cn1nc(-c2ccncc2)cc1Cc1ccc(F)cc1)N1CCC(N2CCOCC2)CC1                  =              0.0101
2  Fc1ccc(Cc2cc(-c3ccncc3)nn2Cc2nc(N3CCOCC3)no2)cc1                  =               0.019
3  CCS(=O)(=O)NC1CCN(C(=O)Cn2nc(-c3ccncc3)cc2Cc2ccc(F)cc2)CC1                  =               0.012
4  CNC1CCN(C(=O)Cn2nc(-c3ccncc3)cc2Cc2ccc(F)cc2)CC1                  =               0.073
5  O=C(Cn1nc(-c2ccncc2)cc1Cc1ccc(F)cc1)NC1CCC1                  =               0.028
6  CN(C(=O)C1CCC1)C1CCN(C(=O)Cn2nc(-c3ccncc3)cc2Cc2ccc(F)cc2)CC1                  <               0.003
7  O=C(Cn1nc(-c2ccncc2)cc1Cc1ccc(F)cc1)N1CCC(N2CCCCC2=O)CC1                  <             0.00833
